Recorded values, source patent US7053185B1.

Test system: tumour cell lines
Experiment: Tumour cell line viability, vital dye (trypan blue)
Assay type: cell-based
Conditions: Dosage 1.0 mg/ml
Method: The two peaks which are believed to contain MAL were kept separately and tested individually. Testing was carried out as described hereinafter in Example 4. Representative results are set out in Table 1. The biological efficacy of the products obtained in the above Examples 1 and 2 above was tested using tumour cell lines as described in Hakansson et al (1995) supra. […] After incubation, the cells are harvested and the cell viability determined using a vital dye (trypan blue).
Task for the reader: assign each of the following molecules its reported Viability of tumour cells.
Express it in %; write the number only.

Req: May I ask what Viability of tumour cells has been recorded for Commercial human α-lactalbumin, Untreated, MAL Peak 1: first MAL peak from commercial (Sigma) human α-lactalbumin run on casein trained column (protein, UniProt P00709 20-142, looked up, multimeric form, first MAL peak from commercial (Sigma) human α-lactalbumin run on casein trained column) Alpha-lactalbumin: KQFTKCELSQLLKDIDGYGGIALPELICTMFHTSGYDTQAIVENNESTEYGLFQISNKLWCKSSQVPQSRNICDISCDKFLDDDITDDIMCAKKILDIKGIDYWLAHKALCTEKLEQWLCEKL ?
Resp: 0

Req: Human α-lactalbumin+, EDTA pre-treated, MAL Peak 1: first peak from EDTA pre-treated human milk α-lactalbumin, casein trained column (protein, UniProt P00709 20-142, looked up, multimeric form, first peak from EDTA pre-treated human milk α-lactalbumin, casein trained column) Alpha-lactalbumin: KQFTKCELSQLLKDIDGYGGIALPELICTMFHTSGYDTQAIVENNESTEYGLFQISNKLWCKSSQVPQSRNICDISCDKFLDDDITDDIMCAKKILDIKGIDYWLAHKALCTEKLEQWLCEKL ?
Resp: 0
